Tested on: HeLa cells
testProtocol: Measurement of the cell cycle inhibition in HeLa cells
Type: cell-based
testConditions: HeLa B cells, 20 h incubation with compound; FACS ratio G0/G1 to G2/M vs DMSO; concentration at which 50% of cells are in cell cycle arrest
pIC50: −log10 of the molar value.

# compound, pIC50
data = [
    ("COc1cc(F)c(-c2c(Cl)nc(C(N)=S)nc2N[C@@H](C)C(F)(F)F)c(F)c1", 7.33),
    ("CC(C)Nc1nc(-n2nccc2[N+](=O)[O-])nc(Cl)c1-c1c(F)cc(F)cc1F", 7.41),
    ("COc1ccc(-c2c(Cl)nc(C(N)=NO)nc2N[C@@H](C)C(F)(F)F)c(Cl)c1", 7.85),
    ("CC1CCCCN1c1nc(-n2ccc(N)n2)nc(Cl)c1-c1c(F)cccc1F (centres unmarked)", 7.43),
    ("Cc1csc(-c2nc(Cl)c(-c3c(F)cc(F)cc3F)c(N[C@@H](C)C(F)(F)F)n2)n1", 7.70),
    ("CC1CCN(c2nc(-n3ccnn3)nc(Cl)c2-c2c(F)cc(F)cc2F)CC1", 7.77),
    ("Cc1nc(-c2nc(Cl)c(-c3c(F)cc(F)cc3F)c(N[C@H](C)C(C)C)n2)cs1", 7.46),
    ("C[C@H](Nc1nc(-n2cccn2)nc(Br)c1-c1c(F)cc(F)cc1F)C(F)(F)F", 7.82),
]

====

Test system: HeLa cells
testProtocol: Measurement of the cell cycle inhibition in HeLa cells
Type: cell-based
testConditions: HeLa B cells, 20 h incubation with compound; FACS ratio G0/G1 to G2/M vs DMSO; concentration at which 50% of cells are in cell cycle arrest
pIC50: −log10 of the molar value.
Property: pIC50; scope: individual compounds

# compound, pIC50
records = [
    ("C[C@H](Nc1nc(-n2ccc(C(F)(F)F)n2)nc(Cl)c1-c1c(F)cc(F)cc1F)C(F)(F)F", 7.77),
    ("Cc1ccc(-c2c(Cl)nc(-n3cccn3)nc2NCC(F)(F)F)c(F)c1", 7.80),
    ("COc1ccc(-c2c(Cl)nc(C(C)=NO)nc2N[C@@H](C)C(C)C)c(Cl)c1", 7.33),
    ("CCC(C)Nc1nc(-n2cc(I)cn2)nc(Cl)c1-c1c(C)cccc1F (centres unmarked)", 7.60),
    ("CC1CCN(c2nc(C(N)=NO)nc(Cl)c2-c2c(F)cc(F)cc2F)CC1", 7.59),
    ("CON=C(N)c1nc(Cl)c(-c2c(F)cccc2Cl)c(N[C@@H](C)C(F)(F)F)n1", 7.74),
    ("C[C@H](Nc1nc(C(N)=O)nc(Cl)c1-c1c(F)cc(F)cc1F)C(F)(F)F", 7.64),
    ("Cc1nc(-n2ccnn2)nc(N2CCC(C)CC2)c1-c1c(F)cccc1Cl", 7.38),
    ("CCC(C)Nc1nc(-n2cccn2)nc(Cl)c1-c1c(F)cccc1Cl (centres unmarked)", 7.92),
    ("C=CCCN(C)c1nc(-n2cc(C)cn2)nc(Cl)c1-c1ccc(F)cc1Cl", 7.39),
    ("CCON=C(N)c1nc(Cl)c(-c2c(F)cc(F)cc2F)c(N[C@H](C)C(F)(F)F)n1", 7.36),
    ("Cc1ccc(-c2c(Cl)nc(-n3cc(Cl)cn3)nc2NCC(F)(F)F)c(F)c1", 7.30),
    ("C=CCN(CC=C)c1nc(-n2cc(Br)cn2)nc(Cl)c1-c1ccc(F)cc1Cl", 7.30),
    ("Cc1nc(C)n(-c2nc(Cl)c(-c3c(F)cccc3Cl)c(N3CCC(C)CC3)n2)n1", 7.68),
    ("Cc1ccnc(-c2nc(Cl)c(-c3c(F)cc(F)cc3F)c(N[C@@H](C)C(F)(F)F)n2)c1", 7.85),
    ("Cc1cnn(-c2nc(Cl)c(-c3c(F)cc(F)cc3F)c(NC(C)C)n2)c1", 7.30),
    ("COc1cc(F)c(-c2c(Cl)nc(-n3cnc([N+](=O)[O-])n3)nc2N2CCC(C)CC2)c(F)c1", 7.62),
]
